- Tested on: HL-60(TB) leukemia
- Procedure text: NCI-60 one-dose screen, 48 h (100 = growth as untreated, 0 = no growth, -100 = all killed)
- Study conditions: 10 µM unless noted
About 83,000 compounds went through this panel and 20% of them were active in at least one assay; those are over-represented in the sample as a whole.
Measured growth of individual entries
Just the number please, in %, no unit attached.

Example results:
Compound	Obs value
CC[C@]1(O)CC2CN(CCc3c([nH]c4ccccc34)[C@@](C(=O)OC)(c3cc4c(cc3OC)N(C)[C@H]3[C@@](O)(C(=O)OC)[C@H](OC(C)=O)[C@]5(CC)C=CCN6CC[C@]43[C@@H]65)C2)C1 (some centres not stated)	2.87
COc1cc(C(=O)NNC(=O)c2ccccc2C(=O)O)cc(OC)c1OC	5.84
Oc1ccccc1C=Nc1ccc(N2CCN(c3ccccc3)CC2)cc1	54.6
N=C(N)c1ccc(-c2ccc(-c3ccc(Cl)c(Cl)c3)o2)cc1	-45.5
COC(c1ccc2ccccc2c1)C(C)C(F)F (configuration not stated)	103
Cc1cc(NC(=O)CCc2ccc(N3C(N)=NC(N)=NC3(C)C)cc2)ccc1S(=O)(=O)F	13.3
Cc1c(O)cccc1O	110
CCCCCCCCCCCCCCCCOc1ccc(S(=O)(=O)N(C)C)cc1[N+](=O)[O-]	110
COc1cccc(NC(=O)c2sc3nc(C)c(C(=O)c4ccccc4)cc3c2N)c1	93.5
CC(C)CCSc1nc(-c2ccc(F)cc2)c(C#N)c(N2CCCCC2)n1	73.1

get_value(item= CS(=O)(=O)Nc1cc(-c2ccc3ncnc(Nc4cccc(Cl)c4F)c3c2)cnc1Cl , readout=growth) returns 80.1

The value of growth measured for the compound O=c1[nH]nc(-c2ccc(Cl)cc2)cc1Cc1ccccc1 turned out to be 77

The recorded growth for entry O=C(Nc1ccc(-n2cc(-c3ccncc3)c(-c3ccc(O)c(Cl)c3)n2)cc1)Nc1cccc(Cl)c1Cl equals 78.8
